System: acyl-coenzyme A: cholesterol acyltransferase
Assay overview: Inhibition of ACAT / intracellular cholesterol esterification in vitro (procedure of Ross et al.)
Type: cell-based
Test conditions: 25 μM
Catalogue of % Inhibition readings, one per entry.
The response must be a number in % with no trailing unit.

Below are worked cases with known answers.
CCCCCc1ccc(CN(C(Nc2ccc(OC)cc2OC)=C2C(=O)OC(C)(C)OC2=O)C(C)CCCCC)cc1 (stereo not shown) [Compound 40] | 99
CCCCCC(C)N(Cc1ccc(CC(C)(C)C)cc1)C(Nc1ccc(N(C)C)cc1)=C1C(=O)OC(C)(C)OC1=O (stereo not shown) [Compound 37] | 99
COc1ccc(NC(=C2C(=O)OC(C)(C)OC2=O)N(Cc2ccc(C(C)(C)C)cc2)C(C)CCCC(C)C)c(OC)c1 (stereo not shown) [Compound 29] | 99
COc1ccc(NC(=C2C(=O)OC(C)(C)OC2=O)N(Cc2ccc(CC(C)C)cc2)[C@@H](CO)Cc2ccccc2)c(OC)c1 [Compound 12] | 96
CCCCCC(C)N(Cc1ccc(CCC(C)C)cc1)C(Nc1ccc(OC)cc1OC)=C1C(=O)OC(C)(C)OC1=O (stereo not shown) [Compound 56] | 97
CC(C)CCc1ccc(CN(C(Nc2ccc(N(C)C)cc2)=C2C(=O)OC(C)(C)OC2=O)C(CC(C)C)CC(C)C)cc1 [Compound 73] | 97

IN: What value of measured % Inhibition is listed for CCCCCCCN(Cc1ccc(CCC(C)C)cc1)C(Nc1ccc(OC)cc1OC)=C1C(=O)OC(C)(C)OC1=O [Compound 55] ?
OUT: 97

====

Tested on: plasma cholesterol
Assay overview: Plasma cholesterol in cholesterol-cholic acid fed rats
Type: in vivo
Test conditions: Rattus norvegicus, 96 h, oral gavage, four days, 40 mg/kg, read-out: % Decrease in Plasma Cholesterol
Catalogue of change in vivo at 40 mg/kg readings, one per entry.
The response must be a number in % with no trailing unit.

Below are worked cases with known answers.
CC(C)CCCC(C)N(Cc1ccc(CC(C)C)cc1)C(Nc1ccc(N(C)C)cc1)=C1C(=O)OC(C)(C)OC1=O (stereo not drawn) | -63
CCCCCC(C)N(Cc1ccc(CC(C)(C)C)cc1)C(Nc1ccc(N(C)C)cc1)=C1C(=O)OC(C)(C)OC1=O (stereo not drawn) | -72

Below: the item to evaluate.
IN: What value of measured change in vivo at 40 mg/kg is listed for CCCCCc1ccc(CN(C(Nc2ccc(N(C)C)cc2)=C2C(=O)OC(C)(C)OC2=O)C(C)CCCCC)cc1 (stereo not drawn) ?
OUT: -89

====

Catalogue of change in vivo at 100 mg/kg readings, one per entry.
Test system: plasma cholesterol
Assay overview: Plasma cholesterol in cholesterol-cholic acid fed rats
Type: in vivo
Test conditions: Rattus norvegicus, 96 h, oral gavage, four days, 100 mg/kg, read-out: % Decrease in Plasma Cholesterol
The response must be a number in % with no trailing unit.

Below are worked cases with known answers.
CCCCCCCN(Cc1ccc(CCCCC)cc1)C(Nc1ccc(OC)cc1OC)=C1C(=O)OC(C)(C)OC1=O | -85
COc1ccc(NC(=C2C(=O)OC(C)(C)OC2=O)N(Cc2ccc(C(C)(C)C)cc2)C(C)CCCC(C)C)c(OC)c1 (stereo not shown) | -84
CCCCCCCN(Cc1ccc(C(C)(C)C)cc1)C(Nc1ccc(N(C)C)cc1)=C1C(=O)OC(C)(C)OC1=O | -35
CCCCCC(C)N(Cc1ccc(C(C)(C)C)cc1)C(Nc1ccc(N(C)C)cc1)=C1C(=O)OC(C)(C)OC1=O (stereo not shown) | -78
CCCCCCCN(Cc1ccc(CC(C)(C)C)cc1)C(Nc1ccc(OC)cc1OC)=C1C(=O)OC(C)(C)OC1=O | -60
CCCCCCCN(Cc1ccc(OCCC(C)C)cc1)C(Nc1ccc(OC)cc1OC)=C1C(=O)OC(C)(C)OC1=O | -42

Below: the item to evaluate.
IN: What value of measured change in vivo at 100 mg/kg is listed for CCCCCC(C)N(Cc1ccc(C(C)(C)C)cc1)C(Nc1ccc(OC)cc1OC)=C1C(=O)OC(C)(C)OC1=O (stereo not shown) ?
OUT: -98
